test target: T1, human melanocortin 3 receptor (human, UniProt P41968 1-323)
T1 construct: whole, on cells; also called hMC3-R; MC3-R
T1 sequence (P41968 whole entry): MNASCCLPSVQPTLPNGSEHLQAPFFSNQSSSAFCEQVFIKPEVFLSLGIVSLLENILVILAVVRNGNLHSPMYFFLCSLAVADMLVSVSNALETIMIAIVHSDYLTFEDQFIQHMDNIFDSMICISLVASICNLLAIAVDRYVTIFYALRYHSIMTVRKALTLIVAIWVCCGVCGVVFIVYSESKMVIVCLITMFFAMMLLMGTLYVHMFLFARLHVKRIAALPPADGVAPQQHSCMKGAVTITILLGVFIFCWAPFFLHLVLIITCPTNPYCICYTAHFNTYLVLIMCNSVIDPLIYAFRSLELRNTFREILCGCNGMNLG
assay notes: radioligand competition, [I125]-NDP-α-MSH, hMC3-R membranes
Positions of bridges follow the written chain, without caps; N, C: chain ends. Non-standard residues stand in square brackets, D forms with d. 1Nal = N[C@@H](Cc1cccc2ccccc12)C(=O)O; Nle = CCCC[C@H](N)C(=O)O
metric: Ki (nM)
Field: numeric (nM). Do not append units.

Given Ac-[Nle]DW[dF]R[1Nal]K-NMe2 (lactam 2-7, also called Compound No. 36) [Ac-Nle-cyclo(-Asp-Trp-D-Phe-Arg-Nal 1-Lys)-N(CH3)2] , state its recorded Ki.
231
